Below, each entry is listed with its recorded percent inhibition of viability.
tested on: NK-YS (IL-2 2.5 ng/mL); assay: percent inhibition of viability; higher = more inhibition; details: 72 h; 0.1 nM
Property: percent inhibition of viability (%)

1. CO[C@H]1C[C@@H]2CC[C@@H](C)[C@@](O)(O2)C(=O)C(=O)N2CCCC[C@H]2C(=O)O[C@H]([C@H](C)C[C@@H]2CC[C@@H](OP(C)(C)=O)[C@H](OC)C2)CC(=O)[C@H](C)/C=C(\C)[C@@H](O)[C@@H](OC)C(=O)[C@H](C)C[C@H](C)/C=C/C=C/C=C/1C [Ridaforolimus] (max concentration tested 100 nM)
5.33
2. CC(C)c1cc(-c2n[nH]c(=O)n2-c2ccc3c(ccn3C)c2)c(O)cc1O [Ganetespib] (max concentration tested 1000 nM)
-2.27

###

Below, each entry is listed with its recorded drug sensitivity score.
test system: DERL-7 (IL-2 2.5 ng/mL); experiment: drug sensitivity score (DSS) (DSS units); higher = more sensitive; extreme values may be limits of the assay; conditions: 72 h
Property: drug sensitivity score

1) CC(=O)Nc1cccc(-n2c(=O)n(C3CC3)c(=O)c3c(Nc4ccc(I)cc4F)n(C)c(=O)c(C)c32)c1 [Trametinib] (max concentration tested 250 nM)
10.2
2) CC(C)C[C@H](NC(=O)[C@H](Cc1ccccc1)NC(=O)c1cnccn1)B(O)O [Bortezomib] (max concentration tested 1000 nM)
33.9
3) CNC(=O)CN1CCC(Oc2cc3c(Nc4cccc(Cl)c4F)ncnc3cc2OC)CC1 [Sapitinib] (max concentration tested 1000 nM)
0
4) CCCS(=O)(=O)Nc1ccc(F)c(C(=O)c2c[nH]c3ncc(-c4ccc(Cl)cc4)cc23)c1F [Vemurafenib] (max concentration tested 10000 nM)
6.92
5) Cc1ccc(-c2cc(C(F)(F)F)nn2-c2ccc(S(N)(=O)=O)cc2)cc1 [Celecoxib] (max concentration tested 10000 nM)
0.68
6) O=C(Nc1cccc(C(F)(F)F)c1)Nc1cc(S(=O)(=O)NC2CC2)ccc1-c1ccsc1 [AGI-6780] (max concentration tested 10000 nM)
3.34

###

tested on: SNK-6 (IL-2 2.5 ng/mL); assay: drug sensitivity score (DSS) (DSS units); higher = more sensitive; extreme values may be limits of the assay; conditions: 72 h
Property: drug sensitivity score

1) Cn1cc(-c2ccc3nnc(C(F)(F)c4ccc5ncccc5c4)n3n2)cn1 (max concentration tested 10000 nM)
5.6
2) Nc1cc(C(F)(F)F)c(-c2cc(N3CCOCC3)nc(N3CCOCC3)n2)cn1 [Buparlisib] (max concentration tested 10000 nM)
23.7
3) Nc1nc(Cl)nc2c1ncn2[C@H]1C[C@H](O)[C@@H](CO)O1 [Cladribine] (max concentration tested 1000 nM)
13.8
4) O=C(Nc1cccnc1)N1CCC(Cc2cccc(Oc3ccc(C(F)(F)F)cn3)c2)CC1 [PF-3845] (max concentration tested 10000 nM)
0.86

###

system: normal primary NK cells, pool 3 (3 donors) (IL-2 2.5 ng/mL); experiment: percent inhibition of viability; higher = more inhibition; settings: 72 h; 100 nM
Below, each entry is listed with its recorded percent inhibition of viability.
Property: percent inhibition of viability

1) CC(C)(C)c1cc(NC(=O)Nc2ccc(-c3cn4c(n3)sc3cc(OCCN5CCOCC5)ccc34)cc2)no1 [Quizartinib] (max concentration tested 1000 nM)
-1.92%
2) CC(=O)O[C@]1(C(C)=O)CC[C@H]2[C@@H]3C=C(C)C4=CC(=O)CC[C@]4(C)[C@H]3CC[C@@]21C [Megestrol acetate] (max concentration tested 10000 nM)
0.83%
3) CCc1cncnc1N1CCN(Cc2nc3ccc(C(F)(F)F)cc3[nH]2)CC1 (max concentration tested 10000 nM)
7.04%
4) CO[C@H]1C[C@@H]2CC[C@@H](C)[C@@](O)(O2)C(=O)C(=O)N2CCCC[C@H]2C(=O)O[C@H]([C@H](C)C[C@@H]2CC[C@@H](OP(C)(C)=O)[C@H](OC)C2)CC(=O)[C@H](C)/C=C(\C)[C@@H](O)[C@@H](OC)C(=O)[C@H](C)C[C@H](C)/C=C/C=C/C=C/1C [Ridaforolimus] (max concentration tested 100 nM)
11%
5) Nc1nc(F)nc2c1ncn2[C@@H]1O[C@H](CO)[C@@H](O)[C@@H]1O [Fludarabine] (max concentration tested 10000 nM)
3.81%
